The reported numbers originate from PubChem BioAssay (EPA / NIEHS).

read-out: Collagen III, COL3A1 (gene 1281); experiment: BSK_hDFCGF_CollagenIII: BioMAP Diversity Plus: hDFCGF Assay for Collagen III Biomarker Activity (AID 2283056); conditions: primary human foreskin fibroblasts; actives raise or lower the signal
Activity calls are given as the source filed them. How the source made its calls: active means hit-call score of the fitted dose curve at least 0.9, where 1 is the maximum; inactive means score below 0.9.
Possible outcomes: active, inactive

> print(dat)
                                    compound  class.label
 1                CNC(=O)Oc1cccc(N=CN(C)C)c1     inactive
 2                    O=C(Nc1ccccc1)Nc1cnns1     inactive
 3              CCOCN(C(=O)CCl)c1c(C)cccc1CC       active
 4  CCS(=O)(=O)c1cccnc1S(=O)(=O)NC(=O)Nc1nc(OC)cc(OC)n1     inactive
 5                CCN(CC)C(=O)SCc1ccc(Cl)cc1     inactive
 6              COc1nn(CSP(=S)(OC)OC)c(=O)s1     inactive
 7               COP(=S)(OC)Oc1ccc(SC)c(C)c1     inactive
 8  CCCN(CCC)c1c([N+](=O)[O-])cc(C(F)(F)F)cc1[N+](=O)[O-]     inactive
 9  C#CCN1C(=O)COc2cc(F)c(N3C(=O)C4=C(CCCC4)C3=O)cc21     inactive
10  CC1(c2ccc(Oc3ccccc3)cc2)OC(=O)N(Nc2ccccc2)C1=O (configuration not stated)     inactive
11  CCC(C)Nc1c([N+](=O)[O-])cc(C(C)(C)C)cc1[N+](=O)[O-] (configuration not stated)     inactive
12  CC(C)(C)C(O)C(Oc1ccc(Cl)cc1)n1cncn1 (configuration not stated)     inactive
13  O=C(NC(=O)c1c(F)cccc1F)Nc1ccc(OC(F)(F)C(F)OC(F)(F)F)c(Cl)c1 (configuration not stated)     inactive
14                      CNC(=O)CSP(=S)(OC)OC     inactive
15                     COP(=O)(OC)OC=C(Cl)Cl     inactive
16          Cc1[nH]c(=O)n(C(C)(C)C)c(=O)c1Cl     inactive
17        COP(=S)(OC)Oc1ccc([N+](=O)[O-])cc1       active
18  COC(=O)c1ccccc1S(=O)(=O)NC(=O)N(C)c1nc(C)nc(OC)n1     inactive
19  COc1cc(OC)nc(NC(=O)NS(=O)(=O)c2cc(NC=O)ccc2C(=O)N(C)C)n1     inactive
20                  O=C(O)CCCOc1ccc(Cl)cc1Cl     inactive
21  O=S1OCC2C(CO1)C1(Cl)C(Cl)=C(Cl)C2(Cl)C1(Cl)Cl (configuration not stated)       active
22  C[C@H]1[C@H](c2ccc(Cl)cc2)SC(=O)N1C(=O)NC1CCCCC1       active
23              Oc1cc(Cl)ccc1Oc1ccc(Cl)cc1Cl       active
24  CC(C)(C)C(O)/C(=C\c1ccc(Cl)cc1Cl)n1cncn1 (configuration not stated)     inactive
25                  CC(C)OC(=O)Nc1cccc(Cl)c1     inactive
26  O=C(O)C(F)(F)C(F)(F)C(F)(F)C(F)(F)C(F)(F)C(F)(F)C(F)(F)F     inactive
27                    CNC(=O)Oc1ccccc1OC(C)C     inactive
28           O=C1c2ccccc2C(=O)N1SC(Cl)(Cl)Cl     inactive
29   CCCN(CCOc1c(Cl)cc(Cl)cc1Cl)C(=O)n1ccnc1       active
30    O=[N+]([O-])c1c(Cl)c(Cl)c(Cl)c(Cl)c1Cl       active
31  Cc1cc(C)nc(NC(=O)NS(=O)(=O)c2ccccc2C(=O)OC2COC2)n1     inactive
32          Clc1ccccc1-c1nnc(-c2ccccc2Cl)nn1       active

----------
target: Transcription factor Sp1 (Homo sapiens) (UniProt P08047); test: ATG_Sp1_CIS: Attagene CIS-FACTORIAL HepG2 Assay for human Specificity Protein 1 (Sp1) (AID 2282961); settings: HepG2 Sp1 cis-reporter transcription, actives raise or lower the signal
Sequence (P08047 whole entry, looked up): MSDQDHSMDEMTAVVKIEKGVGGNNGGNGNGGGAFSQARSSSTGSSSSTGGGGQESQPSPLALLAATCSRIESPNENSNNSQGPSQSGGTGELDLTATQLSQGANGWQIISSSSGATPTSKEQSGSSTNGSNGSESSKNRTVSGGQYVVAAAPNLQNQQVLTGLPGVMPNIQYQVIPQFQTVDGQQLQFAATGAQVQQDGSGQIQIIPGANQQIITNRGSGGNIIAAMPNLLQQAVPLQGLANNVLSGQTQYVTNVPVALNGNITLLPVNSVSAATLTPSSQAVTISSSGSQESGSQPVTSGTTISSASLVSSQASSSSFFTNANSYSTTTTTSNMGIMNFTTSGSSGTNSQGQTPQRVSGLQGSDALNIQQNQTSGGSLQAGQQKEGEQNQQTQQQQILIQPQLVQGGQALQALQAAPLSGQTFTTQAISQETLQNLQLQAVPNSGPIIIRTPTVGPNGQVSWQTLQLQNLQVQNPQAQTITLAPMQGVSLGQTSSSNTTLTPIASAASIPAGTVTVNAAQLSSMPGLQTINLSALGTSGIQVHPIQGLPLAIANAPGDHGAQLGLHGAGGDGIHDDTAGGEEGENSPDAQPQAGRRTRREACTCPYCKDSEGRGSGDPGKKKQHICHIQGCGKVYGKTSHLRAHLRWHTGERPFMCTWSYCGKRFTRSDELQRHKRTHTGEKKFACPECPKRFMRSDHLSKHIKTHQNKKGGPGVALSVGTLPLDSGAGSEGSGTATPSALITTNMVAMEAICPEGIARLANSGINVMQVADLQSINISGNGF
The source made the active and inactive calls. Rule for the calls: active = hit-call score of the fitted dose curve at least 0.9, where 1 is the maximum; inactive = score below 0.9.
Possible outcomes: active, inactive

MOLECULE	CLASS LABEL
CC[C@H](C)[C@H]1O[C@]2(C=C[C@@H]1C)C[C@@H]1C[C@@H](C/C=C(\C)[C@@H](O[C@H]3C[C@H](OC)[C@@H](O[C@H]4C[C@H](OC)[C@@H](O)[C@H](C)O4)[C@H](C)O3)[C@@H](C)/C=C/C=C3\CO[C@@H]4[C@H](O)C(C)=C[C@@H](C(=O)O1)[C@]34O)O2 (tested in a mixture with another compound)	inactive
CC(C)N(C(=O)COc1nnc(C(F)(F)F)s1)c1ccc(F)cc1	inactive
CC(C)OC(=O)Nc1cccc(Cl)c1	inactive
Clc1ccccc1-c1nnc(-c2ccccc2Cl)nn1	inactive
COC(=O)c1ccccc1S(=O)(=O)NC(=O)Nc1nc(C)nc(OC)n1	inactive
CCOC1Oc2ccc(OS(C)(=O)=O)cc2C1(C)C (stereo not drawn)	inactive
CNC(=O)Oc1ccccc1OC(C)C	inactive
CCN(CC)C(=O)SCc1ccc(Cl)cc1	inactive
COP(=O)(OC)OC=C(Cl)Cl	inactive
CCS(=O)(=O)c1cccnc1S(=O)(=O)NC(=O)Nc1nc(OC)cc(OC)n1	inactive
COC(=O)c1ccccc1CS(=O)(=O)NC(=O)Nc1nc(OC)cc(OC)n1	inactive
O=C(NC(=O)c1c(F)cccc1F)Nc1ccc(OC(F)(F)C(F)OC(F)(F)F)c(Cl)c1 (stereo not drawn)	inactive
CCC(C)(NC(=O)c1cc(Cl)c(C)c(Cl)c1)C(=O)CCl (stereo not drawn)	inactive
[2H]C1([2H])[n+]2ccccc2-c2cccc[n+]2C1([2H])[2H]	inactive
COP(=S)(OC)Oc1ccc(SC)c(C)c1	inactive
CNC(=O)Oc1cccc(N=CN(C)C)c1	inactive
CNC(=O)/C=C(\C)OP(=O)(OC)OC	inactive
COc1nn(CSP(=S)(OC)OC)c(=O)s1	inactive
OCCOc1ccccc1	inactive
Cc1[nH]c(=O)n(C(C)(C)C)c(=O)c1Cl	active
O=[N+]([O-])/N=C1\NCCN1Cc1ccc(Cl)nc1	inactive
CC1(C)C(C=C(Cl)Cl)C1C(=O)OC(C#N)c1ccc(F)c(Oc2ccccc2)c1 (stereo not drawn)	inactive
CCc1ccc(C(=O)NN(C(=O)c2cc(C)cc(C)c2)C(C)(C)C)cc1	inactive

----------
experiment: IUF_NPC1_viability_72hr: Viability Assessment at 72 hours in the Leibniz Research Institute for Environmental Medicine (IUF) Neural Progenitor Cell Proliferation Assay (NPC1) (AID 2284209)
The source made the active and inactive calls. The calls were made as follows: active = hit-call score of the fitted dose curve at least 0.9, where 1 is the maximum; inactive = score below 0.9.
Possible outcomes: active, inactive

> print(dat)
                                   molecule  class.label
1  CC1(c2ccc(Oc3ccccc3)cc2)OC(=O)N(Nc2ccccc2)C1=O (stereo not drawn)     inactive
2  CC(C)N(C(=O)COc1nnc(C(F)(F)F)s1)c1ccc(F)cc1     inactive
3  O=C(O)C(F)(F)C(F)(F)C(F)(F)C(F)(F)C(F)(F)C(F)(F)C(F)(F)F     inactive
4                     COP(=O)(OC)OC=C(Cl)Cl       active
5                    O=C(O)COc1ccc(Cl)cc1Cl     inactive
6                      CNC(=O)CSP(=S)(OC)OC     inactive
7  O=S1OCC2C(CO1)C1(Cl)C(Cl)=C(Cl)C2(Cl)C1(Cl)Cl (stereo not drawn)       active
8      O=[N+]([O-])/N=C1\NCCN1Cc1ccc(Cl)nc1     inactive

----------
read-out: Broad substrate specificity ATP-binding cassette transporter ABCG2 (Homo sapiens) (UniProt Q9UNQ0); test: LTEA_HepaRG_ABCG2: Life Technologies and Expression Analysis (LTEA) Assay for ABC Transporter (ABCG2) using HepaRG (AID 2283465); settings: mRNA level, 48 h; actives raise or lower the signal
Sequence (Q9UNQ0 whole entry, looked up): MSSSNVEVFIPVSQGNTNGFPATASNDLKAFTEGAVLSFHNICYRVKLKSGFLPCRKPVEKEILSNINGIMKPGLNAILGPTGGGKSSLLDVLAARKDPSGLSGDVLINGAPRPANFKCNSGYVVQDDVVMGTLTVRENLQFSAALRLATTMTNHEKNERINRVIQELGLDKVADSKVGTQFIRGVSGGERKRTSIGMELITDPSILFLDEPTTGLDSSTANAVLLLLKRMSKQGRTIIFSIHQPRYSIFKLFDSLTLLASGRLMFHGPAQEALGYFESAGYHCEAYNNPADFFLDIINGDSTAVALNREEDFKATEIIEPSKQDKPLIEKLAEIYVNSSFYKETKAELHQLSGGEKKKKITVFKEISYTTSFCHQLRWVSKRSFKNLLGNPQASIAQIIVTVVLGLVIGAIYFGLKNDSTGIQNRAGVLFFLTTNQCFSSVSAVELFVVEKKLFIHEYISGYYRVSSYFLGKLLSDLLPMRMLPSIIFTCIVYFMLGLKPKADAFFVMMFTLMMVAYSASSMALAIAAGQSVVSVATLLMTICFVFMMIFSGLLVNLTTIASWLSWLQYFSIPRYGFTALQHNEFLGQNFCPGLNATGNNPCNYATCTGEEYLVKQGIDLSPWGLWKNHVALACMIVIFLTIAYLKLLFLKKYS
Calls of active or inactive are those of the source. How the source made its calls: active means hit-call score of the fitted dose curve at least 0.9, where 1 is the maximum; inactive means score below 0.9.
Possible outcomes: active, inactive

COMPOUND	CLASS LABEL
C[C@H]1[C@H](c2ccc(Cl)cc2)SC(=O)N1C(=O)NC1CCCCC1	active
COP(=O)(OC)OC=C(Cl)Cl	inactive
CCOCN(C(=O)CCl)c1c(C)cccc1CC	inactive
CCC(C)Nc1c([N+](=O)[O-])cc(C(C)(C)C)cc1[N+](=O)[O-] (stereo not drawn)	active
CC1(c2ccc(Oc3ccccc3)cc2)OC(=O)N(Nc2ccccc2)C1=O (stereo not drawn)	active
CCOC1Oc2ccc(OS(C)(=O)=O)cc2C1(C)C (stereo not drawn)	active
CC(C)OC(=O)Nc1cccc(Cl)c1	inactive
CNC(=O)CSP(=S)(OC)OC	inactive
O=C(NC(=O)c1c(F)cccc1F)Nc1ccc(OC(F)(F)C(F)OC(F)(F)F)c(Cl)c1 (stereo not drawn)	inactive
COc1nn(CSP(=S)(OC)OC)c(=O)s1	inactive
CN1CSC(=S)N(C)C1	inactive
OCCOc1ccccc1	inactive
CNC(=O)Oc1cccc(N=CN(C)C)c1	inactive
CC[C@H](C)[C@H]1O[C@]2(C=C[C@@H]1C)C[C@@H]1C[C@@H](C/C=C(\C)[C@@H](O[C@H]3C[C@H](OC)[C@@H](O[C@H]4C[C@H](OC)[C@@H](O)[C@H](C)O4)[C@H](C)O3)[C@@H](C)/C=C/C=C3\CO[C@@H]4[C@H](O)C(C)=C[C@@H](C(=O)O1)[C@]34O)O2 (tested in a mixture with another compound)	active
Cc1[nH]c(=O)n(C(C)(C)C)c(=O)c1Cl	inactive
CNC(=O)/C=C(\C)OP(=O)(OC)OC	inactive
CCc1ccc(C(=O)NN(C(=O)c2cc(C)cc(C)c2)C(C)(C)C)cc1	active
N#CN	inactive
CC(C)(C)C(O)/C(=C\c1ccc(Cl)cc1Cl)n1cncn1 (stereo not drawn)	inactive
CCN(CC)C(=O)SCc1ccc(Cl)cc1	inactive
C#CCN1C(=O)COc2cc(F)c(N3C(=O)C4=C(CCCC4)C3=O)cc21	inactive
CC1(C)C(C=C(Cl)Cl)C1C(=O)OC(C#N)c1ccc(F)c(Oc2ccccc2)c1 (stereo not drawn)	active
O=C1c2ccccc2C(=O)N1SC(Cl)(Cl)Cl	inactive
